Parameter INHIBITION: see the listing below.
System: Plasmodium berghei
Assay: Screen against P. berghei liver stage (PbLuc), transformed with Luciferase, at 10uM
Format: functional, HepG2
Conditions: tested at 10 uM
Out of some 69,000 compounds screened, about 8,600 (12%) showed an effect of 50% or more. The entries come from a sample that favours strong results as a whole.

INSERT INTO assay_data (molecule, measured_on, reported_metric, result) VALUES
  ('CCc1cc(N(C)Cc2noc(CC(C)C)n2)ncn1', 'Plasmodium berghei', 'INHIBITION', '57.6%'),
  ('Nc1nccnc1C1CN(Cc2ccc(OCC(=O)O)cc2)CCO1 (centres undefined)', 'Plasmodium berghei', 'INHIBITION', '-22.5%'),
  ('Cc1cc(NCCC(=O)NC2CCS(=O)(=O)C2)nc(-c2ccncc2)n1 (centres undefined)', 'Plasmodium berghei', 'INHIBITION', '15.7%'),
  ('O=C(c1ccccc1)N1CCO[C@@H]2CN(c3ncccn3)C[C@@H]2C1', 'Plasmodium berghei', 'INHIBITION', '48.2%'),
  ('COCC1c2nnn(C)c2CCN1C(=O)CCc1cccc(OC)c1 (centres undefined)', 'Plasmodium berghei', 'INHIBITION', '52.1%');

Input: Looking for the measured INHIBITION of COc1cc(N(C)Cc2noc(CC(C)C)n2)ncn1 , can you help?
Output: 43%

Input: Looking for the measured INHIBITION of CCCC(=O)Nc1cc(C(=O)NC(C)Cc2ccncc2)ccc1C (centres undefined) , can you help?
Output: 57.5%
